# testDetails: Turbidity measurement
# Type: physicochemical
# measurementSetup: Table 1; average turbidity corrected for final concentration (1.7-170 μm, per compound)
recordedEndpoint: Turbidity/μm (NTU/μM)

[[record]]
molecule = "COCOc1cc(/C=C/C(=O)CC(SCCOCCOCCOCCOCc2cn([C@H]3O[C@H](CO)[C@@H](O)[C@H](O)[C@@H]3O)nn2)c2cc(OCOC)cc(OCOC)c2)cc(OCOC)c1 (stereo partly drawn)"
recordedendpoint = "Turbidity/μm"
datavalue = 0

[[record]]
molecule = "COCOc1cc(/C=C/C(=O)/C=C/c2cc(OCOC)cc(OCOC)c2)cc(OCOC)c1 [GO-Y030, reference compound]"
recordedendpoint = "Turbidity/μm"
datavalue = 2.68

[[record]]
molecule = "COc1cc(/C=C/C(=O)CC(=O)/C=C/c2ccc(O)c(OC)c2)ccc1O [curcumin, reference compound]"
recordedendpoint = "Turbidity/μm"
datavalue = 0.29

[[record]]
molecule = "COCOc1cc(/C=C/C(=O)CC(SCCOCCOCCOCCOCc2cn([C@@H]3O[C@H](CO)[C@@H](O[C@H]4O[C@H](CO)[C@@H](O)[C@H](O)[C@H]4O)[C@H](O)[C@H]3O)nn2)c2cc(OCOC)cc(OCOC)c2)cc(OCOC)c1 (stereo partly drawn)"
recordedendpoint = "Turbidity/μm"
datavalue = 0

[[record]]
molecule = "COCOc1cc(C=CC(=O)CC(SCCOCCOCCOCCOCc2cn(C3OC(CO)C(O)C(O)C3O)nn2)c2cc(OCOC)cc(OCOC)c2)cc(OCOC)c1 (mixture of isomers)"
recordedendpoint = "Turbidity/μm"
datavalue = 0

[[record]]
molecule = "COc1cc(/C=C/C(=O)/C=C/c2ccc(O)c(OC)c2)ccc1O [GO-Y022, reference compound]"
recordedendpoint = "Turbidity/μm"
datavalue = 0.014

[[record]]
molecule = "COCOc1cc(/C=C/C(=O)CC(SCCOCCOCCOCCOCc2cn([C@@H]3O[C@H](CO)[C@@H](O[C@@H]4O[C@H](CO)[C@H](O)[C@H](O)[C@H]4O)[C@H](O)[C@H]3O)nn2)c2cc(OCOC)cc(OCOC)c2)cc(OCOC)c1 (stereo partly drawn)"
recordedendpoint = "Turbidity/μm"
datavalue = 0.00041

[[record]]
molecule = "COCOc1cc(/C=C/C(=O)CC(SCCOCCOCCOCCOCc2cn([C@H]3O[C@@H](CO)[C@H](O)[C@@H](O)[C@@H]3O)nn2)c2cc(OCOC)cc(OCOC)c2)cc(OCOC)c1 (stereo partly drawn)"
recordedendpoint = "Turbidity/μm"
datavalue = 0

[[record]]
molecule = "COCOc1cc(/C=C/C(=O)CC(SCC(=O)OC)c2cc(OCOC)cc(OCOC)c2)cc(OCOC)c1 (racemic) [GO-Y136, reference compound]"
recordedendpoint = "Turbidity/μm"
datavalue = 0.024


Source listed as patent US20240158430A1.
